Hey, just so you know, these numbers are from paper PMC7156458.

TARGET OR SYSTEM: Aβ42 (Homo sapiens, UniProt P05067)
Sequence (P05067 672-713): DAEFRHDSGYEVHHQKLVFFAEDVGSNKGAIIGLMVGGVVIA
PROCEDURE DETAILS: Th-T (thioflavin-T) assay of Aβ42 aggregation
Type: biochemical
TEST CONDITIONS: compound at 20; reading M42 of time course
EXPERIMENTAL ENDPOINT: Th-T fluorescence, mean of three wells
Enter a number only.

C=C1CC[C@@H]2[C@](C)(CC[C@H]3O[C@H](C=C(C)C)C[C@@]23C)[C@@H]1Cc1c(OC)oc(CO)c(C)c1=O ... 3.4495

Fill in the blank: the reported Th-T fluorescence, mean of three wells of C=C1CCC2C(C)(CCC=C(C)C)C(O)CCC2(C)C1Cc1c(OC)oc(CO)c(C)c1=O (centres unmarked) is ____.
2.216

Quick check: Th-T fluorescence, mean of three wells of C=C1CC[C@@H]2[C@](C)(CC[C@H]3O[C@H](C=C(C)C)C[C@@]23C)[C@@H]1Cc1c(OC)oc(CO)c(C(=O)OC)c1=O ?
0.2125

For the compound shown here, C=C1CCC2C(C)(CCC=C(C)C)C(O)CCC2(C)C1Cc1c(OC)oc(C)c(C(=O)OC)c1=O (centres unmarked) , give the reported Th-T fluorescence, mean of three wells.
2.077

// returns reported Th-T fluorescence, mean of three wells for input C=C1CCC2C(C)(CCC=C(C)C)C(O)CCC2(C)C1Cc1c(OC)oc(CO)c(C(=O)OC)c1=O (centres unmarked)
0.4228
